- assay: Heat stability (no precipitation after heat treatment)
- details: 10 min at 100° C. or 30 min at 85° C.

molecule	Heat stability
Cys2: SP1 variant with cysteine residue inserted in position 2, SEQ ID NO:3 (protein, Sp1 mutant variant Cys in position 2) MCATRTPKLVKHTLLTRFKDEITREQIDNYINDYTNLLDLIPSMKSFNWGTDLGMESAELNRGYTHAFESTFESKSGLQEYLDSAALAAFAEGFLPTLSQRLVIDYFLY	+
Δ2-7 Cys2: SP1 variant Δ2-7 Cys2, SEQ ID NO:9 (protein, Sp1 mutant variant Cys inserted into position 2 together with a deletion of amino acid 2-7) MCLVKHTLLTRFKDEITREQIDNYINDYTNLLDLIPSMKSFNWGTDLGMESAELNRGYTHAFESTFESKSGLQEYLDSAALAAFAEGFLPTLSQRLVIDYFLY	+
Δ2-6 E72C: SP1 Loop 4 modification Δ2-6 E72C, SEQ ID NO:20 (protein, Sp1 mutant variant amino acids 2-6 deleted and E72C mutated) MKLVKHTLLTRFKDEITREQIDNYINDYTNLLDLIPSMKSFNWGTDLGMESAELNRGYTHAFESTFCSKSGLQEYLDSAALAAFAEGFLPTLSQRLVIDYFLY	+
